System: B. subtilis 168
Experiment: fitness (endpoint OD595 vs no drug) (fraction); higher = more growth
Settings: first compound 75 µg/mL; partner 0.125 µg/mL; main component drawn
Assay readout: fitness
# print the numeric value only

Ask: Report fitness for CC[C@H](C)[C@H](N)C1=N[C@H](C(=O)N[C@@H](CC(C)C)C(=O)N[C@H](CCC(=O)O)C(=O)N[C@H](C(=O)N[C@H]2CCCCNC(=O)[C@H](CC(N)=O)NC(=O)[C@@H](CC(=O)O)NC(=O)[C@H](Cc3cnc[nH]3)NC(=O)[C@@H](Cc3ccccc3)NC(=O)[C@H]([C@@H](C)CC)NC(=O)[C@@H](CCCN)NC2=O)[C@@H](C)CC)CS1 [Bacitracin] + N[C@@H]1CONC1=O [Cycloserine D] please.
Result: 0.89

Ask: Report fitness for CC[C@H](C)[C@H](N)C1=N[C@H](C(=O)N[C@@H](CC(C)C)C(=O)N[C@H](CCC(=O)O)C(=O)N[C@H](C(=O)N[C@H]2CCCCNC(=O)[C@H](CC(N)=O)NC(=O)[C@@H](CC(=O)O)NC(=O)[C@H](Cc3cnc[nH]3)NC(=O)[C@@H](Cc3ccccc3)NC(=O)[C@H]([C@@H](C)CC)NC(=O)[C@@H](CCCN)NC2=O)[C@@H](C)CC)CS1 [Bacitracin] + CC1=C\[C@@H](O)CC(=O)Cc2nc(co2)C(=O)N2CCC=C2C(=O)O[C@H](C(C)C)[C@H](C)/C=C/C(=O)NC\C=C\1 [Virginiamycin M1] please.
Result: 0.861

====

Test system: S. aureus DSM 20231
Assay: Bliss interaction score (quartile over a dose matrix) (fitness difference); higher = more antagonism (negative = synergy)
Assay readout: Bliss interaction score
# print the numeric value only

Ask: Report Bliss interaction score for CC[C@H]1OC(=O)[C@H](C)[C@@H](O[C@H]2C[C@@](C)(OC)[C@@H](O)[C@H](C)O2)[C@H](C)[C@@H](O[C@@H]2O[C@H](C)C[C@H](N(C)C)[C@H]2O)[C@](C)(O)C[C@@H](C)C(=O)[C@H](C)[C@@H](O)[C@]1(C)O [Erythromycin] + CC(=O)NC[C@H]1CN(c2ccc(N3CCOCC3)c(F)c2)C(=O)O1 [Linezolid] please.
Result: -0.018

Ask: Report Bliss interaction score for CC[C@H]1OC(=O)[C@H](C)[C@@H](O[C@H]2C[C@@](C)(OC)[C@@H](O)[C@H](C)O2)[C@H](C)[C@@H](O[C@@H]2O[C@H](C)C[C@H](N(C)C)[C@H]2O)[C@](C)(O)C[C@@H](C)C(=O)[C@H](C)[C@@H](O)[C@]1(C)O [Erythromycin] + COc1ccc(C[C@H](N)C(=O)N[C@H]2[C@@H](O)[C@H](n3cnc4c(N(C)C)ncnc43)O[C@@H]2CO)cc1 [Puromycin] please.
Result: -0.0389

Ask: Report Bliss interaction score for CC(=O)NC[C@H]1CN(c2ccc(N3CCOCC3)c(F)c2)C(=O)O1 [Linezolid] + CN[C@@H]1[C@H](O[C@H]2[C@H](O[C@H]3[C@H](O)[C@@H](O)[C@H](N=C(N)N)[C@@H](O)[C@@H]3N=C(N)N)O[C@@H](C)[C@]2(O)C=O)O[C@@H](CO)[C@H](O)[C@H]1O [Streptomycin] please.
Result: -0.0536

Ask: Report Bliss interaction score for CO[C@@]12[C@H](COC(N)=O)C3=C(C(=O)C(C)=C(N)C3=O)N1C[C@@H]1N[C@@H]12 [MitomycinC] + CN(N=O)C(=O)N[C@@H](C=O)[C@@H](O)[C@H](O)[C@H](O)CO [Streptozotocin] please.
Result: 0.0493

Ask: Report Bliss interaction score for CC(=O)NC[C@H]1CN(c2ccc(N3CCOCC3)c(F)c2)C(=O)O1 [Linezolid] + CC1=C\[C@@H](O)CC(=O)Cc2nc(co2)C(=O)N2CCC=C2C(=O)O[C@H](C(C)C)[C@H](C)/C=C/C(=O)NC\C=C\1 [Virginiamycin M1] please.
Result: 0.0505

Ask: Report Bliss interaction score for CO[C@@]12[C@H](COC(N)=O)C3=C(C(=O)C(C)=C(N)C3=O)N1C[C@@H]1N[C@@H]12 [MitomycinC] + CCN(CC)CCOC(=O)c1ccc(N)cc1 [Procaine] please.
Result: 0.0322

Ask: Report Bliss interaction score for CC(C)(O)c1ccccc1CC[C@@H](SCC1(CC(=O)O)CC1)c1cccc(/C=C/c2ccc3ccc(Cl)cc3n2)c1 [Montelukast] + CN[C@@H]1[C@H](O[C@H]2[C@H](O[C@H]3[C@H](O)[C@@H](O)[C@H](N=C(N)N)[C@@H](O)[C@@H]3N=C(N)N)O[C@@H](C)[C@]2(O)C=O)O[C@@H](CO)[C@H](O)[C@H]1O [Streptomycin] please.
Result: -0.394

Ask: Report Bliss interaction score for CC(=O)NC[C@H]1CN(c2ccc(N3CCOCC3)c(F)c2)C(=O)O1 [Linezolid] + Cc1cc(NS(=O)(=O)c2ccc(N)cc2)no1 [Sulfamethoxazol] please.
Result: -0.03

====

System: B. subtilis 168
Test: fitness (endpoint OD595 vs no drug) (fraction); higher = more growth
Settings: first compound 37.5 µg/mL; partner 1.25 µg/mL; main component drawn
Assay readout: fitness
# print the numeric value only

Ask: Give fitness (B. subtilis 168) of the following compound: CC[C@H](C)[C@H](N)C1=N[C@H](C(=O)N[C@@H](CC(C)C)C(=O)N[C@H](CCC(=O)O)C(=O)N[C@H](C(=O)N[C@H]2CCCCNC(=O)[C@H](CC(N)=O)NC(=O)[C@@H](CC(=O)O)NC(=O)[C@H](Cc3cnc[nH]3)NC(=O)[C@@H](Cc3ccccc3)NC(=O)[C@H]([C@@H](C)CC)NC(=O)[C@@H](CCCN)NC2=O)[C@@H](C)CC)CS1 [Bacitracin] + C[n+]1ccc(-c2cc[n+](C)cc2)cc1 [Paraquat]
Result: 0.931

====

System: S. pneumoniae D39V
Test: Bliss interaction score (quartile over a dose matrix) (fitness difference); higher = more antagonism (negative = synergy)
Assay readout: Bliss interaction score
# print the numeric value only

Ask: Report Bliss interaction score for CN[C@@H]1[C@H](O[C@H]2[C@H](O[C@H]3[C@H](O)[C@@H](O)[C@H](N=C(N)N)[C@@H](O)[C@@H]3N=C(N)N)O[C@@H](C)[C@]2(O)C=O)O[C@@H](CO)[C@H](O)[C@H]1O [Streptomycin] + Cn1nnc(-c2ccc(-c3ccc(N4C[C@H](CO)OC4=O)cc3F)cn2)n1 [Tedizolid] please.
Result: -0.057

====

Give measured Bliss interaction score for each item. Keep answers brief.
Tested on: S. aureus Newman
Assay: Bliss interaction score (quartile over a dose matrix) (fitness difference); higher = more antagonism (negative = synergy)
# print the numeric value only

Ask: Report Bliss interaction score for CO[C@H]1/C=C/O[C@@]2(C)Oc3c(C)c(O)c4c(O)c(c(/C=N/N5CCN(C)CC5)c(O)c4c3C2=O)NC(=O)/C(C)=C\C=C\[C@H](C)[C@H](O)[C@@H](C)[C@@H](O)[C@@H](C)[C@H](OC(C)=O)[C@@H]1C [Rifampicin] + CN[C@@H]1[C@H](O)[C@H](NC)[C@H]2O[C@@]3(O)C(=O)C[C@@H](C)O[C@H]3O[C@@H]2[C@H]1O [Spectinomycin] please.
Result: 0.0508

Ask: Report Bliss interaction score for CO[C@@]12[C@H](COC(N)=O)C3=C(C(=O)C(C)=C(N)C3=O)N1C[C@@H]1N[C@@H]12 [MitomycinC] + CO[C@@H]1[C@@H](OC(N)=O)[C@@H](O)[C@H](Oc2ccc3c(O)c(NC(=O)c4ccc(O)c(CC=C(C)C)c4)c(=O)oc3c2C)OC1(C)C [Novobiocin] please.
Result: -0.137

Ask: Report Bliss interaction score for CO[C@@]12[C@H](COC(N)=O)C3=C(C(=O)C(C)=C(N)C3=O)N1C[C@@H]1N[C@@H]12 [MitomycinC] + CN(C)c1cc(NC(=O)CNC(C)(C)C)c(O)c2c1C[C@H]1C[C@H]3[C@H](N(C)C)C(O)=C(C(N)=O)C(=O)[C@@]3(O)C(O)=C1C2=O [Tigecycline] please.
Result: -0.0488

Ask: Report Bliss interaction score for CC(=O)NC[C@H]1CN(c2ccc(N3CCOCC3)c(F)c2)C(=O)O1 [Linezolid] + CO[C@@H]1[C@@H](OC(N)=O)[C@@H](O)[C@H](Oc2ccc3c(O)c(NC(=O)c4ccc(O)c(CC=C(C)C)c4)c(=O)oc3c2C)OC1(C)C [Novobiocin] please.
Result: 0.0413

====

Test system: S. aureus Newman
Test: fitness (endpoint OD595 vs no drug) (fraction); higher = more growth
Conditions: first compound 75 µg/mL; partner 0.25 µg/mL; main component drawn
Give measured fitness for each item. Keep answers brief.
# print the numeric value only

Ask: Report fitness for CC[C@H](C)[C@H](N)C1=N[C@H](C(=O)N[C@@H](CC(C)C)C(=O)N[C@H](CCC(=O)O)C(=O)N[C@H](C(=O)N[C@H]2CCCCNC(=O)[C@H](CC(N)=O)NC(=O)[C@@H](CC(=O)O)NC(=O)[C@H](Cc3cnc[nH]3)NC(=O)[C@@H](Cc3ccccc3)NC(=O)[C@H]([C@@H](C)CC)NC(=O)[C@@H](CCCN)NC2=O)[C@@H](C)CC)CS1 [Bacitracin] + CC1=C(C(=O)O)N2C(=O)[C@@H](NC(=O)[C@H](N)c3ccccc3)[C@H]2SC1 [Cephalexin] please.
Result: 0.0499

Ask: Report fitness for CC[C@H](C)[C@H](N)C1=N[C@H](C(=O)N[C@@H](CC(C)C)C(=O)N[C@H](CCC(=O)O)C(=O)N[C@H](C(=O)N[C@H]2CCCCNC(=O)[C@H](CC(N)=O)NC(=O)[C@@H](CC(=O)O)NC(=O)[C@H](Cc3cnc[nH]3)NC(=O)[C@@H](Cc3ccccc3)NC(=O)[C@H]([C@@H](C)CC)NC(=O)[C@@H](CCCN)NC2=O)[C@@H](C)CC)CS1 [Bacitracin] + CO/N=C(\C(=O)N[C@@H]1C(=O)N2C(C(=O)[O-])=C(C[N+]3(C)CCCC3)CS[C@H]12)c1csc(N)n1 [Cefepime] please.
Result: 0.0298

Ask: Report fitness for CC[C@H](C)[C@H](N)C1=N[C@H](C(=O)N[C@@H](CC(C)C)C(=O)N[C@H](CCC(=O)O)C(=O)N[C@H](C(=O)N[C@H]2CCCCNC(=O)[C@H](CC(N)=O)NC(=O)[C@@H](CC(=O)O)NC(=O)[C@H](Cc3cnc[nH]3)NC(=O)[C@@H](Cc3ccccc3)NC(=O)[C@H]([C@@H](C)CC)NC(=O)[C@@H](CCCN)NC2=O)[C@@H](C)CC)CS1 [Bacitracin] + Cn1nnc(-c2ccc(-c3ccc(N4C[C@H](CO)OC4=O)cc3F)cn2)n1 [Tedizolid] please.
Result: 0.0046
